target: Perilipin-5 (Homo sapiens) + 1-acylglycerol-3-phosphate O-acyltransferase ABHD5 (Homo sapiens) (UniProt Q00G26+Q8WTS1); assay: blockers of ABHD5 binding to perilipin-5 – cell lysate, split luciferase complementation, luminescence, NIH validation set, pilot screen (AID 493035);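 note: 0% = DMSO only wells while the 100% control is not stated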; conditions: split G. princeps luciferase complementation, lysates, 4 h; at 7.9 µM, active compounds read high
Sequence (Q00G26 whole entry, looked up): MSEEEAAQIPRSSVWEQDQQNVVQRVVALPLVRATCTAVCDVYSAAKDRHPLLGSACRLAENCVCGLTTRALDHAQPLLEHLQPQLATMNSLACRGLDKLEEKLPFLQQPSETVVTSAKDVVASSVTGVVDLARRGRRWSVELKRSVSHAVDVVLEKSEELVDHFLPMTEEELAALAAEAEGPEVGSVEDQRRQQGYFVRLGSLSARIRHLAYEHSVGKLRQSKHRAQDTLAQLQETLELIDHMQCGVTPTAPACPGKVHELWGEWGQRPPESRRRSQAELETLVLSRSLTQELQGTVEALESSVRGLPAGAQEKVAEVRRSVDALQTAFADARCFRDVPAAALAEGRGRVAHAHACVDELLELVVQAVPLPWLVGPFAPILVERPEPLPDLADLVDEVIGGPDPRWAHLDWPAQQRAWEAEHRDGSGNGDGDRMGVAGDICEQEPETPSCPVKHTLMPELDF
Sequence (Q8WTS1 whole entry, looked up): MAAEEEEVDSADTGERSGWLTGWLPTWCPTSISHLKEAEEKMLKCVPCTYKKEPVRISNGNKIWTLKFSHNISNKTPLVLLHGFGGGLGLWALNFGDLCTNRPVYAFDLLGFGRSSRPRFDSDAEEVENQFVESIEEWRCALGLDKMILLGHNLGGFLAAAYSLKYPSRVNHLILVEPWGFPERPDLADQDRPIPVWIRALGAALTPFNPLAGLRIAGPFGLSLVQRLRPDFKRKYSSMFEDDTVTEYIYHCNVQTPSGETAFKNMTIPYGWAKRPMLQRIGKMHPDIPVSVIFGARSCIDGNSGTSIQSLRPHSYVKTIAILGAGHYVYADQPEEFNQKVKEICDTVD
Hit rate of the full screen: of about 2,000 compounds, about 45 (2%) were called active. For the sample, actives were picked, then their nearest neighbours and some compounds at random.
OUTCOME_MEASURE: inhibition (%)
Just the number in %, nothing appended.

# count of solved cases: 5
- COMPOUND: "Cc1ccc(S(=O)(=O)NC(=O)Nc2cc(C)ccc2F)cc1"
  OUTCOME_MEASURE: "inhibition"
  UNITS_LABEL: "%"
  OBSERVED_MEASUREMENT: -7.32
- COMPOUND: "O=C(O)C1CCN(C(=O)COc2ccc3c4c(c(=O)oc3c2)CCC4)CC1"
  OUTCOME_MEASURE: "inhibition"
  UNITS_LABEL: "%"
  OBSERVED_MEASUREMENT: -5.81
- COMPOUND: "Cc1[nH]c2ccccc2c1/C=C/c1nc2ccccc2c(=O)n1CCO"
  OUTCOME_MEASURE: "inhibition"
  UNITS_LABEL: "%"
  OBSERVED_MEASUREMENT: 8.95
- COMPOUND: "CCn1c2ccccc2c2cc(CC(N)=O)ccc21"
  OUTCOME_MEASURE: "inhibition"
  UNITS_LABEL: "%"
  OBSERVED_MEASUREMENT: -7.62
- COMPOUND: "COc1ccc(CCn2c(C)nc3c(c(=O)c4ccccc4n3C)c2=O)cc1"
  OUTCOME_MEASURE: "inhibition"
  UNITS_LABEL: "%"
  OBSERVED_MEASUREMENT: 11

Could you now look at the following compound, please?
Input line: Could you tell me which inhibition is on file for "O=C(O)CCSCCC(=O)O" ?
Output line: 2.26
